# experimental target: T1, 4H3921-AA
# T1 chain: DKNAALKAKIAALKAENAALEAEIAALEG
# method notes: two-hybrid library CCmax;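 note: natural log of median RNA to DNA barcode read ratio; higher means stronger binding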
# assay conditions: mean of both orientations
parameter measured: interaction score

Previously resolved entries follow.
>>> measured_number("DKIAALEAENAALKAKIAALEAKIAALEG [4H2277-AA]")
-1.56
>>> measured_number("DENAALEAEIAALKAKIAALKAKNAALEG [4H1135-AA]")
-0.897

I = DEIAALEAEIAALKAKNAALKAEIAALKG [4H122-AA]
II = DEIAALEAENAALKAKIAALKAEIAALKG [4H234-AA]
Lower value of interaction score belongs to which: I or II ? // caller expects the label of the chosen entry
II
